- Test system: HCV 1b genotype
- assayProcedure: HCV Replicon assay (HCV-neo replicon cells), 1b genotype
- Format: cell-based
- assayConditions: Hepatitis C virus; HCV 1b genotype replicon; value given as range class; read-out: 1b EC50 (in μM or range)
reportedProperty: EC50

Lookup: So what does the record say about EC50 for COC(=O)N[C@H](C(=O)N1CCC[C@H]1c1nc(/C=C/c2ccc(/C=C/c3cnc([C@@H]4CCCN4C(=O)[C@@H](NC(=O)OC)[C@@H](C)OC)[nH]3)cc2)c[nH]1)[C@@H](C)OC ?
Found: < 0.001 µM

Lookup: Give the measured EC50 of COC(=O)N[C@H](C(=O)N1CCC[C@H]1c1ncc(-c2ncc(-c3cnc(-c4cnc([C@@H]5CCCN5C(=O)[C@@H](NC(=O)OC)C(C)C)[nH]4)s3)s2)[nH]1)C(C)C .
Found: 0.001 to 0.01 µM

Lookup: # lookup: EC50 of CN(C)[C@@H](C(=O)N1CCC[C@H]1c1nc(-c2ncc(-c3cccc(-c4cnc([C@@H]5CCCN5C(=O)[C@@H](c5ccccc5)N(C)C)[nH]4)c3)o2)c[nH]1)c1ccccc1
Found: 0.001 to 0.01 µM

Lookup: Dear colleague, I am looking for the recorded EC50 of the following compound: COC(=O)N[C@H](C(=O)N1[C@@H]2C[C@@H]2C[C@H]1c1ncc(C#CC#Cc2cnc([C@@H]3C[C@H]4C[C@H]4N3C(=O)[C@@H](NC(=O)OC)C3CCOCC3)[nH]2)[nH]1)C1CCOCC1
Found: 0.001 to 0.01 µM

Lookup: Request the reported EC50 associated with CCN(CC)[C@@H](C(=O)N1CCC[C@H]1c1nc(CCc2ccc(CCc3cnc([C@@H]4CCCN4C(=O)[C@@H](c4ccccc4)N(CC)CC)[nH]3)cc2)c[nH]1)c1ccccc1
Found: < 0.001 µM

---

Assign EC50 to each entry below.
- Tested on: HCV 1b genotype
- assayProcedure: HCV Replicon assay (HCV-neo replicon cells), 1b genotype
- Type: cell-based
- assayConditions: Hepatitis C virus; HCV 1b genotype replicon; value given as range class; read-out: 1b EC50 (in μM or range)

Lookup: Which value of EC50 has been reported for COC(=O)N[C@H](C(=O)N1CCC[C@H]1c1ncc(C#Cc2ccc(C#Cc3cnc([C@@H]4CCCN4C(=O)[C@@H](NC(=O)OC)C(C)C)[nH]3)cc2)[nH]1)C(C)C [Example M4] in the records?
Found: < 0.001 µM

Lookup: For the compound shown here, O=C([C@@H](c1ccccc1)N1CCCCC1)N1CCC[C@H]1c1ncc(C#CC#Cc2cnc([C@@H]3CCCN3C(=O)[C@@H](c3ccccc3)N3CCCCC3)[nH]2)[nH]1 [Example 30] , give the reported EC50.
Found: < 0.001 µM

Lookup: EC50 lookup needed for COC(=O)N[C@@H](C(=O)N1CCC[C@H]1c1ncc(-c2cnc(-c3ncc(-c4cnc([C@@H]5CCCN5C(=O)[C@H](NC(=O)OC)C(C)C)[nH]4)s3)s2)[nH]1)C(C)C [Example 18] , thanks.
Found: 0.01 to 10 µM

Lookup: Need EC50 of COC(=O)N[C@@H](C)C(=O)N1CCC[C@H]1c1nc(/C=C/c2ccc(/C=C/c3cnc([C@@H]4CCCN4C(=O)[C@H](C)NC(=O)OC)[nH]3)cc2)c[nH]1 [Example 37] , thanks.
Found: < 0.001 µM
